# target-or-test-system: furin, P09958;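 note: purified furin at 1:10 enzyme:substrate in 50 mM HEPES pH 7.5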
# Sequence (P09958 whole entry): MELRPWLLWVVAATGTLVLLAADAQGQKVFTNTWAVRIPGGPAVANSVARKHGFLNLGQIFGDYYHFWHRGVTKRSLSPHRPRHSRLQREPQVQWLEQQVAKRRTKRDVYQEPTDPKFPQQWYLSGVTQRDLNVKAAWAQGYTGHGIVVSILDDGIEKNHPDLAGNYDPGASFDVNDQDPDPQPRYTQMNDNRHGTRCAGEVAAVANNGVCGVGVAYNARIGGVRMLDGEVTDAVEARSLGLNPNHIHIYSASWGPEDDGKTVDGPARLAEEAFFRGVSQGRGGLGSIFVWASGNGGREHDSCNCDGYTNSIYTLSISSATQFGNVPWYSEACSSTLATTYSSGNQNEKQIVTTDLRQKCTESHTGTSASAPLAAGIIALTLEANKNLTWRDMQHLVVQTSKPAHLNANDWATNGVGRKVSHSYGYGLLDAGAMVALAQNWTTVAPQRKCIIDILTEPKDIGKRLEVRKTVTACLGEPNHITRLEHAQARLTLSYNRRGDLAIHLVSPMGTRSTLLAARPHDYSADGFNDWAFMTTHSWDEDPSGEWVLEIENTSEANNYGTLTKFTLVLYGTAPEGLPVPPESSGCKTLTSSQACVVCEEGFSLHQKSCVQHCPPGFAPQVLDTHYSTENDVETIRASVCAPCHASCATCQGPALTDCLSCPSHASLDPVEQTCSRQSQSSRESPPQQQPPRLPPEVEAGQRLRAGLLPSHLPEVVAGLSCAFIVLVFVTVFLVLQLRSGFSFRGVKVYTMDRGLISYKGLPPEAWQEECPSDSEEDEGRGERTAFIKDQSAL
# assay-procedure: furin cleavage Z-score vs untreated control; higher = more cleavage, active = 3.5 or more, inactive = 1 or less, 8 variable residues between constant flanks
# test-conditions: 7.5 min
Some of the results follow. No count for the full screen is at hand.
Permitted responses: active, inactive

CASPERHTRSAGNASASA [FS-1414]; active
CAGGAARALAAGNASASA [HC233]; inactive
CAIPRRHTRSAGNASASA [FS-1015]; active
CAQLLRRLHQAGNASASA [HC1138]; inactive
CACLSRRRRAAGNASASA [FS-582]; active
CAYYHRHTRSAGNASASA [FS-577]; inactive

For this sequence, state the assay outcome: CATKKRPRRMAGNASASA [FS-1171]
active
